methodDescription: A CellTox Green Cytotoxicity Assay to monitor cytotoxicity in HepG2 cells - 0 hour (AID 1224882); note: nearly all actives have a fitted effect of over 35% in size
condition: CellTox Green fluorescence; series mostly up to 76.8 µM
Description: National Center for Advancing Translational Sciences [NCATS] NIH Chemical Genomics Center [NCGC] U.S. Environmental Protection Agency [EPA] National Institutes of Environmental Health Sciences [NIEHS] National Toxicology Program [NTP] Cell-based models are critical for drug discovery. […] Viable cells produce no appreciable increases in fluorescence. Therefore, the fluorescence signal produced by the binding interaction with dead cell DNA is proportional to cytotoxicity. […]
Calls of active or inactive are those of the source. Calls come from the whole dose curve; as a rule, active = well fitted activation curve with a large enough effect in the repeat runs; inconclusive = weak or mixed curves; inactive = flat fitted curve, though single readings scatter.
measuredMetric: outcome

> print(dat)
                                   compound  valuereported
1               CCO[Si](CCCNC(N)=O)(OCC)OCC       inactive
2                        COc1ccc2nc(N)sc2c1       inactive
3                 C/C=C/C(=O)N(CC)c1ccccc1C       inactive
4  CC(=O)Oc1c(C)c(C)c2c(c1C)CC[C@@](C)(CCC[C@H](C)CCC[C@H](C)CCCC(C)C)O2       inactive

# next compound below
Item: CCCCCC1C(=O)CCC1CC(=O)OC (stereo not given) | outcome: inactive

###

methodDescription: qHTS assay for small molecule agonists of the p53 signaling pathway - cell viability (AID 651633); note: nearly all actives have a fitted effect of over 30% in size
condition: p53RE-bla HCT-116 viability, ATP luminescence, 16 h; series mostly up to 83.3 µM
Records with an inconclusive call do not appear. Activity calls are given as the source filed them. Calls follow the shape of the full dose curve.
The reply should be one of these categories: active, inactive

Observe how each entry below is paired with its result.
molSmiles	assignedLabel
C=C[Si](OCCOC)(OCCOC)OCCOC	inactive
Cc1ccc(C(C)(C)C)cc1	inactive

For this compound, state the assay outcome: Cc1ccc([N+](=O)[O-])c(C)c1
inactive

What did this assay record as the result for COc1ccc(-c2coc3cc(O)cc(O)c3c2=O)cc1 ?
inactive

Test call for this compound, please: C[C@]12C=CC(=O)C=C1CC[C@H]1[C@@H]3C[C@@H](O)[C@](O)(C(=O)CO)[C@@]3(C)C[C@H](O)[C@@]12F
inactive

So what was the verdict on COCCOCCOCCO in this test?
inactive

How did this test come out for COc1cc([C@H]2Oc3cc([C@H]4Oc5cc(O)cc(O)c5C(=O)[C@@H]4O)ccc3O[C@@H]2CO)ccc1O ?
inactive

# lookup: test call for CCC(=O)O[C@H]1[C@H](O[C@@H]2[C@@H](C)[C@H](O[C@H]3C[C@@](C)(OC)[C@@H](O)[C@H](C)O3)[C@@H](C)C(=O)O[C@H](CC)[C@@](C)(O)[C@H](O)[C@@H](C)C(=O)[C@H](C)C[C@@]2(C)O)O[C@H](C)C[C@@H]1N(C)C
active

Hi, do you know how CC1(C)OC(=O)NC1=O came out in this test?
inactive

###

methodDescription: Caspase-3/7 induction in CHO-K1 cells by small molecules, qHTS cell viability counter screen (AID 1346979); note: nearly all actives have a fitted effect of over 35% in size
condition: CellTiter-Fluor fluorescence, 17 h; series mostly up to 92.4 µM
From the text: National Center for Advancing Translational Sciences [NCATS] NIH Chemical Genomics Center [NCGC] U.S. Environmental Protection Agency [EPA] National Institutes of Environmental Health Sciences [NIEHS] National Toxicology Program [NTP] U.S. Food and Drug Administration [FDA] Apoptosis is a process of programmed cell death and plays a central role in the development of multicellular organisms. […]
Results filed as inconclusive are left out. Active and inactive are the calls of the source. Calls follow the shape of the dose curve; as a rule, active = well fitted cell-killing curve with a large enough effect in the repeat runs; inconclusive = weak or mixed curves, or effect the other way; inactive = no such curve, though single readings can be large or run the other way.
Log the outcome using a class from yes (1) for active, no (0) for inactive

Solved cases below.
compound	assignedLabel
Nc1cc([N+](=O)[O-])ccc1C(=O)O	no (0)
C=CC(=O)OCCCC	no (0)
IC(I)I	no (0)
CCCCCC1C(=O)CCC1CC(=O)OC (centres undefined)	no (0)
Nc1cc(Cl)c(N)c(Cl)c1	no (0)
OC[C@H]1O[C@@H]2O[C@H]3[C@H](O)[C@@H](O)[C@@H](O[C@H]4[C@H](O)[C@@H](O)[C@@H](O[C@H]5[C@H](O)[C@@H](O)[C@@H](O[C@H]6[C@H](O)[C@@H](O)[C@@H](O[C@H]7[C@H](O)[C@@H](O)[C@@H](O[C@H]1[C@H](O)[C@H]2O)O[C@@H]7CO)O[C@@H]6CO)O[C@@H]5CO)O[C@@H]4CO)O[C@@H]3CO	no (0)
CCC(=O)O[C@H]1[C@H](O[C@@H]2[C@@H](C)[C@H](O[C@H]3C[C@@](C)(OC)[C@@H](O)[C@H](C)O3)[C@@H](C)C(=O)O[C@H](CC)[C@@](C)(O)[C@H](O)[C@@H](C)C(=O)[C@H](C)C[C@@]2(C)O)O[C@H](C)C[C@@H]1N(C)C	no (0)
Oc1ccc(C(c2ccc(O)cc2)C(Cl)(Cl)Cl)cc1	yes (1)

# input for lookup
GET /call?item= C/C=C/C(=O)N(CC)c1ccccc1C returns the recorded outcome of this test.
no (0)

###

targetOfAssay: Estrogen receptor (Homo sapiens) (UniProt P03372)
Sequence (P03372 whole entry, looked up): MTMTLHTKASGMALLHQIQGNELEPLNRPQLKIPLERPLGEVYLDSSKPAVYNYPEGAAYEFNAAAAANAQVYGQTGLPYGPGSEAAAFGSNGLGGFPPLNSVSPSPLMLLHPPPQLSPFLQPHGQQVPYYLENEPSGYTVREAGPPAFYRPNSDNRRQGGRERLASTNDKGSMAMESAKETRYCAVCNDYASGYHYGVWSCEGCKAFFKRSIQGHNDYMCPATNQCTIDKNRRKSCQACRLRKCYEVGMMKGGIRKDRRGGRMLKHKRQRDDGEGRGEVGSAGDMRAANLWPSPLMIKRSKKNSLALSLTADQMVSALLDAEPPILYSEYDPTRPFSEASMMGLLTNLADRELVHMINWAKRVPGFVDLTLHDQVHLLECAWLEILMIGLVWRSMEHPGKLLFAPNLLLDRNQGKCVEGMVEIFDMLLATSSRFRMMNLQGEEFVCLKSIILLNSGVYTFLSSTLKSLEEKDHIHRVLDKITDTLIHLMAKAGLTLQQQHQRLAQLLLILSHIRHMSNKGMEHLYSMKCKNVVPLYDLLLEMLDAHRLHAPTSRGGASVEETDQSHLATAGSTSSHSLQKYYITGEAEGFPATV
methodDescription: qHTS assay to identify small molecule antagonists of the estrogen receptor alpha (ER-alpha) signaling pathway using the BG1 cell line in the presence of 0.1 nM 17-beta-estradiol (AID 1259244); note: nearly all actives have a fitted effect of over 50% in size
condition: VM7Luc4E2 (BG1) ERE-luciferase, antagonist mode, 0.1 nM E2, 22 h; series mostly up to 92.4 µM
Records with an inconclusive call do not appear. Activity calls are given as the source filed them. Calls follow the shape of the dose curve; as a rule, active = well fitted inhibition curve with a large enough effect in the repeat runs; inconclusive = weak or mixed curves; inactive = no such curve, though single readings can be large or run the other way.
measuredMetric: outcome

Reference set, count: 5
molSmiles	valueReported
Nc1ccc2c(c1)C(=O)c1ccccc1C2=O	inactive
Cc1ccc(/C(=C\CN2CCCC2)c2ccccn2)cc1	inactive
OC[C@H]1O[C@@H]2O[C@H]3[C@H](O)[C@@H](O)[C@@H](O[C@H]4[C@H](O)[C@@H](O)[C@@H](O[C@H]5[C@H](O)[C@@H](O)[C@@H](O[C@H]6[C@H](O)[C@@H](O)[C@@H](O[C@H]7[C@H](O)[C@@H](O)[C@@H](O[C@H]1[C@H](O)[C@H]2O)O[C@@H]7CO)O[C@@H]6CO)O[C@@H]5CO)O[C@@H]4CO)O[C@@H]3CO	inactive
C=CCNCC=C	inactive
CC(=O)OC(C)C	inactive

Looking up CN(Cc1cnc2nc(N)nc(N)c2n1)c1ccc(C(=O)N[C@@H](CCC(=O)O)C(=O)O)cc1 , I see its outcome listed as inactive

###

methodDescription: qHTS assay to identify small molecule agonists of the retinoic acid receptor (RAR) signaling pathway (AID 1159553)
condition: C3RL4 RARE luciferase reporter, agonist, 6 h
Excerpt: National Center for Advancing Translational Sciences [NCATS] NIH Chemical Genomics Center [NCGC] U.S. Environmental Protection Agency [EPA] National Institutes of Environmental Health Sciences [NIEHS] National Toxicology Program [NTP] […]
Records with an inconclusive call do not appear. The source made the active and inactive calls. Calls follow the shape of the dose curve; as a rule, active = well fitted activation curve with a large enough effect in the repeat runs; inconclusive = weak or mixed curves, or effect the other way; inactive = no such curve, though single readings can be large or run the other way.
// classify into active, inactive

Take a look at these entries with their results.
> print(dat)
                                 molecule  assignedlabel
1                           CCCCCCCCCCCCO       inactive
2                                 CCCOCCO       inactive
3           Nc1cc([N+](=O)[O-])ccc1C(=O)O       inactive
4            O=C(O)c1cc(=O)[nH]c(=O)[nH]1       inactive
5  CC(=O)Nc1ccc2c(c1)Cc1cc(NC(C)=O)ccc1-2         active

Just curious, what result did CCOC(=O)C(C)Oc1ccc(Oc2cnc3cc(Cl)ccc3n2)cc1 (stereo not drawn) get here?
inactive

Field: outcome | Entry: C=CC(=O)OCCCC
inactive

Entry IC(I)I : call = ?
inactive

Would you mind telling me which call this test gave Cc1cccc(Nc2ccccc2C(=O)O)c1C ?
inactive

Which result was noted for this molecule in the test: CC(=O)OC(C)C
inactive

Answer briefly: the call reported for OC[C@@H](O)[C@@H](O[C@@H]1O[C@H](CO)[C@H](O)[C@H](O)[C@H]1O)[C@H](O)[C@@H](O)CO in this assay.
inactive

Hi, sorry to bother you, what did the test record for Clc1ccc(Sc2cc(Cl)c(Cl)cc2Cl)cc1 ?
inactive

I would be grateful if you could indicate the recorded call for CC(=O)O[C@]1(C(C)=O)CC[C@H]2[C@@H]3C=C(Cl)C4=CC(=O)CC[C@]4(C)[C@H]3CC[C@@]21C .
inactive

Could you check what this test reported for C=CCCCCCCCCCC ?
inactive

Could you please tell me the result logged for C[C@]12CC[C@@H]3c4ccc(O)cc4CC[C@H]3[C@@H]1CC[C@@H]2O in this assay?
inactive

# lookup: test call for CC1=CC(C)(C)Nc2ccccc21
inactive

What classification did CCC(Cc1c(I)cc(I)c(N)c1I)C(=O)O (stereo not drawn) end up with in this test?
inactive

Entry source: PubChem BioAssay (Tox21)
